Where do the numbers come from? From paper PMC12993615.

- study-target: FABP7 (Homo sapiens, UniProt O15540)
- Sequence (O15540 whole entry, species assumed): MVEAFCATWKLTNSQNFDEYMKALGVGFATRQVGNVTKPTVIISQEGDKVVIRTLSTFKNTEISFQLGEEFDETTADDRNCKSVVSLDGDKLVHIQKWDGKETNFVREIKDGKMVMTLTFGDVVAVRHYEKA
- experiment-summary: Fluorescence displacement binding assay (ANS probe)
readout-type: Ki (µM)
Give bare numbers, in µM.

Item under review: COc1ccccc1[C@@H]1[C@H](C(=O)O)[C@@H](c2ccccc2OC)[C@H]1C(=O)OC1Cc2ccccc2C1 . Reported Ki?
19

----------
- experiment-summary: Oral bioavailability / pharmacokinetics in rats
- Assay type: in vivo
- conditions-used: Sprague Dawley, rat, plasma; male rats, PO 300 mg/kg
- Description: Following intravenous and oral administration, blood samples (ca .2 mL) were collected from the jugular vein. For IV group, blood samples were collected at .083, .25, .5, 1, 2, 4, 6, 8, 24 hours post-dose. For PO group, blood samples were collected at .25, .5, 1, 2, 4, 6, 8, 24 hours post-dose. Blood samples were collected into tubes containing the anticoagulant K2EDTA. […]
readout-type: half-life (h)
Answers are plain numbers, in h.

Which value of half-life has been reported for COc1ccccc1[C@@H]1[C@H](C(=O)O)[C@@H](c2ccccc2OC)[C@H]1C(=O)OC1Cc2ccccc2C1 [ART26.12] in the records?
3.8

----------
- experiment-summary: Oral bioavailability / pharmacokinetics in rats
- Type: in vivo
- conditions-used: Sprague Dawley, rat, plasma; male rats, IV 2 mg/kg; read-out: volume of distribution
readout-type: Vd (L/kg)
Answers are plain numbers, in L/kg.

# query: Vd of entry COc1ccccc1[C@@H]1[C@H](C(=O)O)[C@@H](c2ccccc2OC)[C@H]1C(=O)OC1Cc2ccccc2C1 [ART26.12]
1.3

----------
- experiment-summary: in vivo
- conditions-used: both sexes, beagle, dog, po, 500 mg/kg
readout-type: NOAEL at 14 days (mg/kg/day)
Give bare numbers, in mg/kg/day.

Consider the molecule shown here: COc1ccccc1[C@@H]1[C@H](C(=O)O)[C@@H](c2ccccc2OC)[C@H]1C(=O)OC1Cc2ccccc2C1 What is its recorded NOAEL at 14 days?
1000

----------
- experiment-summary: Oral bioavailability / pharmacokinetics in rats
- Type: in vivo
- conditions-used: Sprague Dawley, rat, plasma; male rats, PO 300 mg/kg
readout-type: bioavailability (%)
Numbers only, in %.

For COc1ccccc1[C@@H]1[C@H](C(=O)O)[C@@H](c2ccccc2OC)[C@H]1C(=O)OC1Cc2ccccc2C1 , what is its reported bioavailability?
163

----------
- experiment-summary: Oral bioavailability / pharmacokinetics in rats
- Assay type: in vivo
- conditions-used: Sprague Dawley, rat, plasma; male rats, PO 300 mg/kg
readout-type: Tmax

I would be grateful if you could share the reported Tmax for COc1ccccc1[C@@H]1[C@H](C(=O)O)[C@@H](c2ccccc2OC)[C@H]1C(=O)OC1Cc2ccccc2C1 .
~6.6 h

----------
- study-target: UniProt P15090
- Sequence (P15090 whole entry, species assumed): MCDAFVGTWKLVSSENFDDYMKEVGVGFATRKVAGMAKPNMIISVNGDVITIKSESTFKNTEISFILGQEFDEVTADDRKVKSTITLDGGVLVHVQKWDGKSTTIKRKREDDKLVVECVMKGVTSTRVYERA
readout-type: Ki

Look at this molecule and give its reported Ki. COc1ccccc1[C@@H]1[C@H](C(=O)O)[C@@H](c2ccccc2OC)[C@H]1C(=O)OC1Cc2ccccc2C1 [ART26.12]
> 100 µM

----------
- experiment-summary: in vivo
- Parameters: species or system Wistar Han rats
- conditions-used: both sexes, Wistar Han, rat, po, 500 mg/kg
readout-type: NOAEL at 14 days (mg/kg/day)
Give bare numbers, in mg/kg/day.

NOAEL at 14 days for COc1ccccc1[C@@H]1[C@H](C(=O)O)[C@@H](c2ccccc2OC)[C@H]1C(=O)OC1Cc2ccccc2C1 ?
1000

----------
- experiment-summary: Plasma concentration in PKPD time course (established OIPN)
- Assay type: in vivo, male Sprague Dawley rats
- conditions-used: male, Sprague Dawley, rat, plasma; OIPN rats, single 100 mg/kg PO; read-out: time of peak plasma concentration
readout-type: Tmax

So what's the measured Tmax for this one? COc1ccccc1[C@@H]1[C@H](C(=O)O)[C@@H](c2ccccc2OC)[C@H]1C(=O)OC1Cc2ccccc2C1
~3 h
